Catalogue of pKd values
molecular target: FGFR2 on SNU-16 gastric cancer cell line with FGFR2 amplification (UniProt P21802); test: FACS on SNU-16 cells, % cells with FITC+ against log antibody concentration; Kd printed in the legend box [cont.]
Worth noting: pKd values are minus log10 of concentrations stated in mol/L.

Reference set (3 entries):
M048-D01 (antibody, V domains shown, Parental bivalent monospecific antibody; also called Antibody A; Bayer) VH: EVQLLESGGGLVQPGGSLRLSCAASGFTFSSYAMSWVRQAPGKGLEWVSAISGSGTSTYYADSVKGRFTISRDNSKNTLYLQMNSLRAEDTAVYYCARVRYNWNHGDWFDPWGQGTLVTVSS VL: QSVLTQPPSASGTPGQRVTISCSGSSSNIGNNYVSWYQQLPGTAPKLLIYENYNRPAGVPDRFSGSKSGTSASLAISGLRSEDEADYYCSSWDDSLNYWVFGGGTKLTVLG :: 7.51
12433 (antibody, V domains shown, the duobody scheme implies IgG1 with K409R or F405L; also called Antibody F; N12433) VH: QVQLVQSGAEVKKPGESLKISCKGSGYSFTNYYIHWVRQMPGKGLEWMGAIYPDNSDTTYSPSFQGQVTISADKSISTAYLQWSSLKASDTAMYYCARGADIWGQGTLVTVSS VL: DIQMTQSPSSLSASVGDRVTITCRASQDIDPYLSNWYQQKPGKAPKLLIYDASNLQSGVPSRFSGSGSGTDFTLTISSLQPEDFATYYCQQTTSHPYTFGQGTKVEIK :: 8.06
10164 (antibody, V domains shown, the duobody scheme implies IgG1 with K409R or F405L; also called Antibody C; N10164) VH: QVQLVESGGGLVKPGGSLRLSCAASGFTFSSYALSWVRQAPGKGLEWVGRIRSKIDGGTTDYAAPVKGRFTISRDDSKNTLYLQMNSLKTEDTAVYYCARDRSPSDSSAFAIWGQGTLVTVSS VL: DIELTQPPSVSVSPGQTASITCSGDNLGSQYVDWYQQKPGQAPVLVIYDDNDRPSGIPERFSGSNSGNTATLTISGTQAEDEADYYCQSWDSLSVVFGGGTKLTVLG :: 9.89

Proceed to the following item.
Notebook: 2B 1.3.12 (antibody, V domains shown, the duobody scheme implies IgG1 with K409R or F405L; also called Antibody D; GE) VH: EVQLVESGGGLVQPGGSLRLSCAASGFPFTSTGISWVRQAPGKGLEWVGRTHLGDGSTNYADSVKGRFTISADTSKNTAYLQMNSLRAEDTAVYYCARTYGIYDTYDMYTEYVMDYWGQGTLVTVSS VL: DIQMTQSPSSLSASVGDRVTITCRASQDVDTSLAWYKQKPGKAPKLLIYSASFLYSGVPSRFSGSGSGTDFTLTISSLQPEDFATYYCQQSTGHPQTFGQGTKVEIK , pKd read as 8.75
